test: NCI Yeast Anticancer Drug Screen. Data for the mlh1 rad18 strain (AID 175); settings: S. cerevisiae mlh1 rad18 strain growth inhibition; at 50.0 µM
Compounds without any hit were thinned out: in the full panel of roughly 79,000, 15% have a hit. The source made the active and inactive calls. Cut-off read from the data, not from the text of the source: active = growth inhibition above about 70%; inactive = the rest.
Hello, when you answer, please use one of the following outcomes: class 1 (active), class 0 (inactive)

Previously resolved entries follow.
[[record]]
molecule = "CC(=O)N=C1N(/C=C2\\C(=O)Oc3ccccc3C2=O)C(=O)/C(=C/c2ccc(Cl)cc2Cl)N1C"
group_label = "class 1"

[[record]]
molecule = "CC1(C)CCC2(CC1)CC(=O)OC(=O)C2"
group_label = "class 0"

[[record]]
molecule = "O=C1c2ccc(O)c(O)c2C(=O)c2c(O)ccc(O)c21"
group_label = "class 1"

[[record]]
molecule = "Fc1cccc(CSc2ncnc3c2ncn3C2CCCS2)c1 (centres undefined)"
group_label = "class 1"

[[record]]
molecule = "CC(=O)Oc1c2ccccc2c(C)c2c1ccc1ccccc12"
group_label = "class 1"

[[record]]
molecule = "NC(=S)Nc1c(Br)cc(Br)cc1Br"
group_label = "class 0"

[[record]]
molecule = "C1CCC(CC[N+]23CC[N+](CCC4CCCC4)(CC2)C3)C1"
group_label = "class 0"

[[record]]
molecule = "O=c1cccccc1O.O=c1cccccc1O.O=c1cccccc1O.[Ru]"
group_label = "class 1"


Hi team, can someone confirm the assay call for NC(=Nc1ccccc1)c1ccc2c(c1)c1c(n2Cc2ccccc2)CCCC1 ?
class 1

* * *

experiment: NCI Yeast Anticancer Drug Screen. Data for the bub3 strain (AID 167); details: S. cerevisiae bub3 mutant strain, at 50.0 µM (retest, dose inferred, filed as 5.0), active compounds read high
This is part of a sample that, as a whole, favours compounds with a hit. Of some 79,000 tested, about 15% had one in any assay.
The following compounds are shown together with reported growth inhibition values.
Give the quantity in %, number only.

Completed entries (count: 2):
[[record]]
test_smiles = "N#CSc1ccc(O)cc1"
measured_number = 96

[[record]]
test_smiles = "c1ccc2c(B(c3cccc4ccccc34)c3cccc4ccccc34)cccc2c1"
measured_number = 99


// Input: O=C(O)c1c(Br)c(Br)c(Br)c(Br)c1-c1c2ccc(=O)cc-2oc2cc(O)ccc12 . Output its growth inhibition only.
95

* * *

assay: NCI Yeast Anticancer Drug Screen. Data for the sgs1 mgt1 strain (AID 161);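 note: 0% = growth of cultures given vehicle only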; conditions: S. cerevisiae sgs1 mgt1 strain, at 5.0 µM (retest, dose inferred, filed as 0.5)
This is part of a sample that, as a whole, favours compounds with a hit. Of some 79,000 tested, about 15% had one in any assay. The source made the active and inactive calls. Cut-off read from the data, not from the text of the source: active = growth inhibition above about 70%; inactive = the rest.
Entry note: the call must match one of true (1) for active, false (0) for inactive

[[record]]
molecule = "O=C1NC(=S)S/C1=C/c1ccc(/C=C2/SC(=S)NC2=O)cc1"
group_label = "false (0)"


Called result for COc1ccc(C(c2ccc(OC)cc2)c2ccccc2C(=O)O)cc1
false (0)

Status in this test for C=CCNC(=O)NC(=O)CSC1=NNC2(C(=O)N1)c1ccccc1-c1ccccc12 ?
false (0)

Record request — test call for COC(=O)c1ccc2c(c1)C(O)NC(=O)O2 (stereo unspecified)
false (0)

What call does the record list for NC(=S)SCCC(=O)O ?
false (0)

Assay outcome for C1=C(c2ccccc2)[P+](c2ccccc2)(c2ccccc2)C=C(c2ccccc2)[P+]1(c1ccccc1)c1ccccc1 : what was it?
true (1)
